Values from the supplement of paper PMC10037445

# Tested on: RAW-Dual
# procedure details: NF-kB SEAP reporter activity, fold change vs agonist alone; higher = enhanced NF-kB activity
# reported conditions: library stock concentration (final ~1000-fold dilution): 10 mM; cytotoxicity flag (confluency mask): not cytotoxic; agonist: MPLA (TLR4) […]
Over roughly 2,900 compounds, “NF-kB SEAP reporter activity, fold change vs agonist alone” has its median near 0.99; the highest 2% begin near 2.6. The sample holds the highest values, similar compounds and a random draw of the others, so the mix is not that of the screen.
Listing of entries alongside the reported NF-kB SEAP reporter activity.
Form: value (number only, do not type unit).

compound	NF-kB SEAP reporter activity
O=P(O)(O)Oc1cccc2ccccc12	1.08

Now for a further compound.
**Q:** API: value(readout=NF-kB SEAP reporter activity, system=RAW-Dual) for record COC(C)Cn1c(=O)n(C)c2cnc3ccc(-c4cncc(C(C)(C)O)c4)cc3c21 (stereo not drawn)
**A:** 1.85

---

# Tested on: RAW-Dual
# procedure details: NF-kB SEAP reporter activity, fold change vs agonist alone; cytotoxicity flag (confluency mask): cytotoxic (confluency <70% of control); higher = enhanced NF-kB activity
# reported conditions: agonist: Pam2CSK4 (TLR2/6) 0.1 ug/mL
Over roughly 2,900 compounds, “NF-kB SEAP reporter activity, fold change vs agonist alone” has its median near 0.99; the highest 2% begin near 2.6. This excerpt belongs to a sample that is enriched for the highest values.
quantity name: NF-kB SEAP reporter activity

Study these solved cases before continuing.
compound	test system	NF-kB SEAP reporter activity
CC(C)(C)c1nc(-c2ccc(NC(=O)Nc3cccc(C(F)(F)F)c3)c3ccccc23)c2c(N)nccn12 (library stock concentration (final ~1000-fold dilution): 10 mM)	RAW-Dual	0.0888
CC(NCCC(c1ccccc1)c1ccccc1)c1ccccc1.Cl (stereo not given) (library stock concentration (final ~1000-fold dilution): 10 mM)	RAW-Dual	0.754
COc1cccc2c1C(=O)c1c(O)c3c(c(O)c1C2=O)CC(O)(C(C)=O)CC3OC1CC(N)C(O)C(C)O1.Cl (stereo not given) (library stock concentration (final ~1000-fold dilution): 10 mM)	RAW-Dual	0.0932
C=CCNC1=C2CC(C)CC(OC)C(O)C(C)/C=C(\C)C(OC(N)=O)C(OC)/C=C\C=C(/C)C(=O)NC(=CC1=O)C2=O (stereo not given) (library stock concentration (final ~1000-fold dilution): 10 mM)	RAW-Dual	0.0862

Please look at the following compound next.
**Q:** Fill blank: measured NF-kB SEAP reporter activity of the compound O=C(/C=C/c1ccc(CN(CCO)CCc2c[nH]c3ccccc23)cc1)NO (library stock concentration (final ~1000-fold dilution): 10 mM) is ____.
**A:** 1.46

---

# System: RAW-Dual
# procedure details: NF-kB SEAP reporter activity, fold change vs agonist alone; cytotoxicity flag (confluency mask): not cytotoxic; higher = enhanced NF-kB activity
# reported conditions: agonist: LPS (TLR4) 0.1 ug/mL
In all, about 2,900 compounds were measured (“NF-kB SEAP reporter activity, fold change vs agonist alone”: median about 0.99, highest 2% from about 2.6 on). For the sample, the highest values were picked, then their nearest neighbours and some compounds at random.
quantity name: NF-kB SEAP reporter activity

molecule	reported measurement
CC(=O)OC12COC1CC(O)C1(C)C(=O)C(O)C3=C(C)C(OC(=O)C(O)C(NC(=O)OC(C)(C)C)c4ccccc4)CC(O)(C(OC(=O)c4ccccc4)C21)C3(C)C.O.O.O (stereo not given) (library stock concentration (final ~1000-fold dilution): 10 mM)	1.26

**Q:** Form field: reported NF-kB SEAP reporter activity of CC(C)(Cc1ccc2ccccc2c1)NCC(O)COc1cccc(Cl)c1C#N (stereo not given) (library stock concentration (final ~1000-fold dilution): 10 mM)
**A:** 0.273

**Q:** Proceed to CCNC1(C(N)=O)CCN(c2ncnc3c2nc(-c2ccccc2Cl)n3-c2ccc(Cl)cc2)CC1.Cl (library stock concentration (final ~1000-fold dilution): 2 mM)
**A:** 0.587

**Q:** Consider next the molecule CN1CCN(CCCNc2ncc(Cl)c(-c3cc4c(C(=O)NC5CC5)cccc4s3)n2)CC1.Cl.Cl.Cl (library stock concentration (final ~1000-fold dilution): 10 mM) in the same way.
**A:** 0.313

**Q:** Queued: Cc1ncc(Cl)cc1NCc1ccc(C(=O)NC(CC2CCCC2)C(=O)NC2CC2)s1 (stereo not given) (library stock concentration (final ~1000-fold dilution): 10 mM)
**A:** 0.894

---

# Test system: RAW-Dual
# procedure details: NF-kB SEAP reporter activity, fold change vs agonist alone; cytotoxicity flag (confluency mask): cytotoxic (confluency <70% of control); higher = enhanced NF-kB activity
# reported conditions: agonist: Pam2CSK4 (TLR2/6) 0.1 ug/mL
Whole data set: some 2,900 compounds, median “NF-kB SEAP reporter activity, fold change vs agonist alone” near 0.99, cut for the highest 2% near 2.6. The list comes from a sample in which the highest values are over-represented; it also holds close analogues and randomly drawn compounds.
Answer not fulfilled if NF-kB SEAP reporter activity is under 0.9, and fulfilled if it is 0.9 or more.

Consider the worked cases shown below.
compound	label value
Cc1cnc(Nc2ccc(OCCN3CCCC3)cc2)nc1Nc1cccc(S(=O)(=O)NC(C)(C)C)c1 (library stock concentration (final ~1000-fold dilution): 10 mM)	fulfilled
CCCCc1nc2cc(/C=C/C(=O)NO)ccc2n1CCN(CC)CC (library stock concentration (final ~1000-fold dilution): 10 mM)	fulfilled

Then this compound:
**Q:** Hi, just wondering whether CCN(CC)CCOc1ccc(Nc2ncc3cc(-c4c(Cl)cccc4Cl)c(=O)n(C)c3n2)cc1 (library stock concentration (final ~1000-fold dilution): 10 mM) shows NF-kB SEAP reporter activity of 0.9 or higher.
**A:** not fulfilled

---

# NF-kB SEAP reporter activity values compiled below
# System: RAW-Dual
# procedure details: NF-kB SEAP reporter activity, fold change vs agonist alone; cytotoxicity flag (confluency mask): not cytotoxic; higher = enhanced NF-kB activity
# reported conditions: agonist: Pam3CSK4 (TLR2/1) 0.1 ug/mL
The full ranking holds about 2,900 compounds; the median of “NF-kB SEAP reporter activity, fold change vs agonist alone” is about 0.99, and the highest 2% start at about 2.6. Only a selection was taken, and the highest values are over-represented in it overall.
Output: the number by itself.

Consider the following illustrative entries.
molecule	reported measurement
CC(C)NCC(O)COc1cccc2ccccc12.Cl (stereo not given) (library stock concentration (final ~1000-fold dilution): 10 mM)	1.08
CCNC1CC(C)S(=O)(=O)c2sc(S(N)(=O)=O)cc21.Cl (stereo not given) (library stock concentration (final ~1000-fold dilution): 10 mM water)	0.997
COC(=O)Nc1ccc(-c2nc(N3CCOCC3)c3cnn(C4CCN(C(=O)OC)CC4)c3n2)cc1 (library stock concentration (final ~1000-fold dilution): 10 mM)	0.873
CN1CCN(Cc2ccc(-c3cnc4[nH]cc(-c5ccc6[nH]ccc6c5)c4c3)cc2)CC1 (library stock concentration (final ~1000-fold dilution): 10 mM)	0.138

Now, please, on to the next molecule.
**Q:** Could you share which NF-kB SEAP reporter activity value was measured for CC(=O)N1c2ccc(-c3ccc(C(=O)O)cc3)cc2C(Nc2ccc(Cl)cc2)CC1C (stereo not given) (library stock concentration (final ~1000-fold dilution): 10 mM) ?
**A:** 1.85

---

# System: RAW-Dual
# procedure details: NF-kB SEAP reporter activity, fold change vs agonist alone; cytotoxicity flag (confluency mask): not cytotoxic; higher = enhanced NF-kB activity
# reported conditions: agonist: LPS (TLR4) 0.1 ug/mL
Over roughly 2,900 compounds, “NF-kB SEAP reporter activity, fold change vs agonist alone” has its median near 0.99; the highest 2% begin near 2.6. This is one part of a sample in which the highest values are shown more often than they occur.
quantity name: NF-kB SEAP reporter activity
Form field (numeric): enter value without unit.

compound	reported measurement
CCOc1cc(=O)[nH]cc1-c1ccc(CC(=O)Nc2cc(C(C)(C)C(F)(F)F)on2)c(F)c1 (library stock concentration (final ~1000-fold dilution): 10 mM)	0.538
CN1CCN(CC(=O)N2c3ccccc3C(=O)Nc3cccnc32)CC1.Cl.Cl (library stock concentration (final ~1000-fold dilution): 10 mM water)	1.25
CCn1cc(-c2ccnc3[nH]c(-c4cccc(CN(C)C)c4)cc23)c(-c2ccc(NC(=O)N(C)C)cc2)n1 (library stock concentration (final ~1000-fold dilution): 10 mM)	6.43

**Q:** Fill in the blank: the reported NF-kB SEAP reporter activity of CNC(C)C(=O)NC(C(=O)N1CCCC1C(=O)Nc1snnc1-c1ccccc1)C1CCCCC1 (stereo not given) (library stock concentration (final ~1000-fold dilution): 10 mM) is ____.
**A:** 0.612

**Q:** Further, for CC(C)OC(=O)CCC/C=C\CC1C(O)CC(O)C1CCC(O)CCc1ccccc1 (stereo not given) (library stock concentration (final ~1000-fold dilution): 10 mM) ?
**A:** 1.4
